This collection of values is drawn from paper PMC9103804.

# STUDY_TARGET: T1, CIRV p19 (Carnation Italian ringspot virus, UniProt Q66104 1-172)
# T1 sequence: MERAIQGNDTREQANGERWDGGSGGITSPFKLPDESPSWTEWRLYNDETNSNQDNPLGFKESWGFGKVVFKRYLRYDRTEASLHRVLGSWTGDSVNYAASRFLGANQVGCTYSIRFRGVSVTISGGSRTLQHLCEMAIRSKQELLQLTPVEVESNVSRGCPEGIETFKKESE
# PROCEDURE_DETAILS: EMSA
# CONDITIONS_USED: protein: recombinant; tags: GST tag removed (PreScission, pGEX-6P-1); chain copies: 2; label: 5'-32P; 3' overhangs 2 nt, G/G mismatch
QUANTITY_MEASURED: Kd (nM)
Write the answer as a number in nM, unit excluded.

INPUT: I have this binder here, miR162-12gG/8*G (dsRNA, 5'-phosphate) RNA 1: UCGAUAAACCUGUGCAUCCAG RNA 2: GGAUGCAGAGGUUCAUCGAUC , and I need its recorded Kd.
OUTPUT: 0.07
